Reference source: ChEMBL document CHEMBL1201862

Listing of entries alongside the reported GI50.
Tested on: SN12C
Experiment: NCI tumour cell line growth inhibition, 48 h
Activity calls are given as the source filed them. Rule as the data show it: active = GI50 up to about 1.1 µM and inactive = higher.

>>> readout_value("CC(C)=CCCC(C)[C@H]1CC(O)C2(C)C3=CCC4C(C)(C)[C@@H](O)CC[C@]4(C)C3=CC[C@]12C (some centres undefined)")
"3.14 µM (inactive)"
>>> readout_value("ClCCCN(CCCCl)c1ccc(/C=N/c2cccc(Cl)c2)cc1")
"10.4 µM (inactive)"
>>> readout_value("COc1ccc(/C=C2\\N=C(c3ccccc3)OC2=O)c(OCc2ccccc2)c1")
"> 100 µM (inactive)"

GET /value?item= CC(C)Oc1c(O)c2c3c(oc(=O)n3C=CC2c2ccccc2)c1OC(C)C (centres undefined) &field=GI50 returns 36.5 µM (inactive)

GET /value?item= CC1=C[C@@H]2Cc3nc4cc(Cl)ccc4c(N)c3[C@H](C1)C2 &field=GI50 returns 12.4 µM (inactive)

GET /value?item= O=C1CCCc2cc3c(cc21)CC1(Cc2ccccc2C1)C3 &field=GI50 returns 4.52 µM (inactive)

GET /value?item= CCCCCCCCCCCC[C@H](O)[C@H]1CC[C@H]([C@H](O)CCCC[C@H](O)CCCCC[C@@H](O)CC2=C[C@H](C)OC2=O)O1 &field=GI50 returns 5.83 µM (inactive)

GET /value?item= c1cc2nnnn2nc1N1CCCC1 &field=GI50 returns > 100 µM (inactive)

GET /value?item= CCOC(=O)C1=CC(C)(C(=O)OCC)Nc2c(nc(OC)[nH]c2=O)N1 (centres undefined) &field=GI50 returns > 10 µM (inactive)

GET /value?item= O=C(Nc1ccc(Cl)cc1)c1cc(S(=O)(=O)Nc2nc3cccnc3[nH]2)c(SSc2cc(Cl)c(C(=O)Nc3ccc(Cl)cc3)cc2S(=O)(=O)Nc2nc3cccnc3[nH]2)cc1Cl &field=GI50 returns > 100 µM (inactive)

GET /value?item= N=C(N)NS(=O)(=O)c1ccc(NC(=O)c2cccc3c(Nc4ccc(S(N)(=O)=O)cc4)c4ccccc4nc23)cc1 &field=GI50 returns > 100 µM (inactive)

GET /value?item= Nc1nc(N)c(C2=CCNCC2)c(=O)[nH]1 &field=GI50 returns > 100 µM (inactive)
